- TARGET: Nuclear respiratory factor 1 (Homo sapiens) (UniProt Q16656)
- Sequence (Q16656 whole entry, looked up): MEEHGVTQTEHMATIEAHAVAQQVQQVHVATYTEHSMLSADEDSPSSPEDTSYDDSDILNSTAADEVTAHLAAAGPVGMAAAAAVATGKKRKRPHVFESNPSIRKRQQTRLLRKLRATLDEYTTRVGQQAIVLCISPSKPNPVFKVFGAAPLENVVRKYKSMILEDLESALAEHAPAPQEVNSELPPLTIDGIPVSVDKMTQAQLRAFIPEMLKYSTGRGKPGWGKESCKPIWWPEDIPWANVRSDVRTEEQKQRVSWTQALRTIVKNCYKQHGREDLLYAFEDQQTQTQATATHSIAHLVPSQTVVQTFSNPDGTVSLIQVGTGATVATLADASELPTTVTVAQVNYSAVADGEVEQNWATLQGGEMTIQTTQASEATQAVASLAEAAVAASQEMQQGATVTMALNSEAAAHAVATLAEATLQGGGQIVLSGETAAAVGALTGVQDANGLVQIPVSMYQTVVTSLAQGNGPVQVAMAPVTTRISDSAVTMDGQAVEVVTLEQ
- PROCEDURE TEXT: ATG_NRF1_CIS: Attagene CIS-FACTORIAL HepG2 Assay for human Nuclear Respiratory Factor 1 (NRF1) Orphan Gene (AID 2282987)
- MEASUREMENT SETUP: HepG2 NRF1 cis-element reporter, Attagene multiplex; actives raise or lower the signal
Activity calls are given as the source filed them. Rule for the calls: active = hit-call score of the fitted dose curve at least 0.9, where 1 is the maximum; inactive = score below 0.9.
READOUT NAME: outcome

Please review the following examples before continuing.
MOLECULE: CNC(=O)ON=C(SC)C(=O)N(C)C
READOUT NAME: outcome
VALUE REPORTED: inactive

MOLECULE: CSc1nnc(C(C)(C)C)c(=O)n1N
READOUT NAME: outcome
VALUE REPORTED: inactive

MOLECULE: CCCOc1nn(C(=O)NS(=O)(=O)c2ccccc2C(=O)OC)c(=O)n1C
READOUT NAME: outcome
VALUE REPORTED: inactive

MOLECULE: CCOC(=O)COc1cc(-c2nn(C)c(OC(F)F)c2Cl)c(F)cc1Cl
READOUT NAME: outcome
VALUE REPORTED: inactive

MOLECULE: C#CCC1=C(C)C(OC(=O)C2C(C=C(C)C)C2(C)C)CC1=O (stereo not drawn)
READOUT NAME: outcome
VALUE REPORTED: inactive

MOLECULE: CN(C)C(=O)Nc1cccc(C(F)(F)F)c1
READOUT NAME: outcome
VALUE REPORTED: inactive

MOLECULE: CN(C)NC(=O)CCC(=O)O
READOUT NAME: outcome
VALUE REPORTED: inactive

MOLECULE: CCCCOC(=O)[C@@H](C)Oc1ccc(Oc2ccc(C#N)cc2F)cc1
READOUT NAME: outcome
VALUE REPORTED: inactive

MOLECULE: O=c1ccc(=O)[nH][nH]1
READOUT NAME: outcome
VALUE REPORTED: inactive

MOLECULE: Cc1ccn2nc(S(=O)(=O)Nc3c(F)cccc3F)nc2n1
READOUT NAME: outcome
VALUE REPORTED: inactive

Give me outcome for each of these molecules, listed below.
1. CCCOCC(=Nc1ccc(Cl)cc1C(F)(F)F)n1ccnc1
2. C[N+]1(C)CCCCC1
3. COc1cc(OC)nc(Sc2cccc(Cl)c2C(=O)O)n1

A)
["inactive", "inactive", "inactive"]

====

- PROCEDURE TEXT: BSK_3C_uPAR: BioMAP Diversity Plus: 3C Assay for Urokinase-type plasminogen activator receptor (uPAR) Biomarker Activity (AID 2282998)
- MEASUREMENT SETUP: BioMAP 3C HUVEC, uPAR biomarker ELISA; actives raise or lower the signal
The source made the active and inactive calls. How the source made its calls: active means hit-call score of the fitted dose curve at least 0.9, where 1 is the maximum; inactive means score below 0.9.
Give your call using only these classes: active, inactive

Solved entries (count: 7):
COMPOUND: CCC(=O)Nc1ccc(Cl)c(Cl)c1
LABEL CLASS: inactive
//
COMPOUND: CCOP(=S)(Oc1cnc(C(C)(C)C)nc1)OC(C)C (stereo not drawn)
LABEL CLASS: active
//
COMPOUND: CNc1cnn(-c2cccc(C(F)(F)F)c2)c(=O)c1Cl
LABEL CLASS: inactive
//
COMPOUND: CC(=NC#N)N(C)Cc1ccc(Cl)nc1
LABEL CLASS: inactive
//
COMPOUND: CCC(CC)Nc1c([N+](=O)[O-])cc(C)c(C)c1[N+](=O)[O-]
LABEL CLASS: inactive
//
COMPOUND: CSC1=N[C@@](C)(c2ccccc2)C(=O)N1Nc1ccccc1
LABEL CLASS: active
//
COMPOUND: COc1cccc(C(=O)NN(C(=O)c2cc(C)cc(C)c2)C(C)(C)C)c1C
LABEL CLASS: inactive

Shift focus to the following entry.
Q) Test call, this compound: CC(COc1ccc(Oc2ccccc2)cc1)Oc1ccccn1 (stereo not drawn)
A) active

====

- Read-out: Glutamate-cysteine ligase regulatory (GCLM), GCLM (gene 2730)
- PROCEDURE TEXT: LTEA_HepaRG_GCLM: Life Technologies and Expression Analysis (LTEA) Assay for Glutamate-cysteine ligase regulatory (GCLM) using HepaRG (AID 2283500)
- MEASUREMENT SETUP: mRNA level, 48 h; actives raise or lower the signal
Calls of active or inactive are those of the source. Rule for the calls: active = hit-call score of the fitted dose curve at least 0.9, where 1 is the maximum; inactive = score below 0.9.
READOUT NAME: outcome

COMPOUND: CC(COc1ccc(Oc2ccccc2)cc1)Oc1ccccn1 (configuration not stated)
VALUE REPORTED: inactive
--
COMPOUND: CCOP(=O)(NC(C)C)Oc1ccc(SC)c(C)c1 (configuration not stated)
VALUE REPORTED: inactive
--
COMPOUND: CC(C)N(C(=O)SCC(Cl)=C(Cl)Cl)C(C)C
VALUE REPORTED: inactive
--
COMPOUND: CCc1cccc(CC)c1N(COC)C(=O)CCl
VALUE REPORTED: inactive
--
COMPOUND: C[N+]1(C)CCCCC1
VALUE REPORTED: inactive

Give me outcome for each of these compounds, listed below.
1. CON=C(C(=O)OC)c1ccccc1CON=C(C)c1cccc(C(F)(F)F)c1
2. Cc1nn(-c2cc(NS(C)(=O)=O)c(Cl)cc2Cl)c(=O)n1C(F)F
3. O=C(O)c1cc(Oc2ccc(C(F)(F)F)cc2Cl)ccc1[N+](=O)[O-]
4. CCOP(=O)(SC(C)CC)N1CCSC1=O (configuration not stated)
5. Nc1c(Cl)cc([N+](=O)[O-])cc1Cl

A)
1. inactive
2. inactive
3. inactive
4. inactive
5. inactive

Give me outcome for each of these compounds, listed below.
1. CC(Oc1cccc(Cl)c1)C(=O)O (configuration not stated)
2. CCc1cnc(C2=NC(C)(C(C)C)C(=O)N2)c(C(=O)O)c1 (configuration not stated)

A)
["inactive", "inactive"]

====

- PROCEDURE TEXT: CCTE_Shafer_MEA_dev_network_spike_duration_std: CCTE's Neural Network Formation Assay for Standard Deviation of Network Spike Duration, Shafer Lab (AID 2284052);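 note: area under curve of spike duration SD across recording days 5 to 12; hits are decreases in network spike duration SD versus DMSO vehicle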
- Protocol: CCTE_Shafer_MEA_dev assay is conducted using Axion Biosystems 48 well microelectrode array (MEA) plates and Maestro recording system. Each well of the MEA plate contains a grid of 16 microelectrodes embedded in the culture surface. Electrically active cells, such as neurons, can be cultured over the electrodes, and electrical activity in these cells can be recorded extracellularly. […]
The source made the active and inactive calls. Rule for the calls: active = hit-call score of the fitted dose curve at least 0.9, where 1 is the maximum; inactive = score below 0.9.
Give your call using only these classes: Y (active), N (inactive)

Solved entries (count: 3):
MOLECULE: COP(=O)(OC)C(O)C(Cl)(Cl)Cl (configuration not stated)
LABEL CLASS: N
//
MOLECULE: CCCSP(=O)(OCC)SCCC
LABEL CLASS: N
//
MOLECULE: CCOP(=S)(OCC)Oc1ccc([N+](=O)[O-])cc1
LABEL CLASS: N

Q) Test call, this molecule: "CSC1=N[C@@](C)(c2ccccc2)C(=O)N1Nc1ccccc1"
A) N

Q) Test call, this molecule: CC(Oc1cccc(Cl)c1)C(=O)O (configuration not stated)
A) N

Q) Test call, this molecule: "CC(=NC#N)N(C)Cc1ccc(Cl)nc1"
A) N

Q) Test call, this molecule: "CN(C)[C@@H]1C(=O)C(C(N)=O)=C(O)[C@@]2(O)C(=O)C3=C(O)c4c(O)cccc4[C@@](C)(O)[C@H]3[C@H](O)[C@@H]12"
A) N

Q) Test call, this molecule: CCCSP(=O)(OCC)Oc1ccc(Br)cc1Cl (configuration not stated)
A) N

====

- Read-out: BCL2L11 (gene 10018)
- PROCEDURE TEXT: LTEA_HepaRG_BCL2L11: Life Technologies and Expression Analysis (LTEA) Assay for Bcl-2 (BCL2L11) gene using HepaRG (AID 2283473)
- MEASUREMENT SETUP: mRNA level, 48 h; actives raise or lower the signal
Calls of active or inactive are those of the source. The calls were made as follows: active = hit-call score of the fitted dose curve at least 0.9, where 1 is the maximum; inactive = score below 0.9.
Give your call using only these classes: active, inactive

COMPOUND: O=[N+]([O-])c1cc(C(F)(F)F)c(Cl)c([N+](=O)[O-])c1Nc1ncc(C(F)(F)F)cc1Cl
LABEL CLASS: active

Q) Test call, this compound: "COc1ccc(C(=CC(=O)N2CCOCC2)c2ccc(Cl)cc2)cc1OC"
A) inactive

====

- PROCEDURE TEXT: CCTE_Shafer_MEA_dev_correlation_coefficient_mean: CCTE's Neural Network Formation Assay for Mean Correlation Coefficient, Shafer Lab (AID 2284093)
Active and inactive are the calls of the source. How the source made its calls: active means hit-call score of the fitted dose curve at least 0.9, where 1 is the maximum; inactive means score below 0.9.
Give your call using only these classes: active, inactive

Solved entries (count: 3):
COMPOUND: CCOP(=O)(OCC)Oc1cc(C)nc(C(C)C)n1
LABEL CLASS: inactive
//
COMPOUND: CCOP(=S)(OCC)Oc1ccc([N+](=O)[O-])cc1
LABEL CLASS: inactive
//
COMPOUND: CN(C)[C@@H]1C(=O)C(C(N)=O)=C(O)[C@@]2(O)C(=O)C3=C(O)c4c(O)cccc4[C@@](C)(O)[C@H]3[C@H](O)[C@@H]12
LABEL CLASS: active

Q) Test call, this compound: CCOP(=O)(SC(C)CC)N1CCSC1=O (configuration not stated)
A) inactive

Q) Test call, this compound: "CC(C)N(C(=O)SCC(Cl)=C(Cl)Cl)C(C)C"
A) active

Q) Test call, this compound: "CCOP(=S)(OCC)Oc1ccc2c(C)c(Cl)c(=O)oc2c1"
A) active

Q) Test call, this compound: CCOC(=O)CC(SP(=O)(OC)OC)C(=O)OCC (configuration not stated)
A) inactive

Q) Test call, this compound: COP(=O)(NC(C)=O)SC (configuration not stated)
A) inactive

Q) Test call, this compound: "CSC1=N[C@@](C)(c2ccccc2)C(=O)N1Nc1ccccc1"
A) inactive

Q) Test call, this compound: CC(Oc1cccc(Cl)c1)C(=O)O (configuration not stated)
A) inactive

Q) Test call, this compound: "O=[N+]([O-])c1cc(C(F)(F)F)c(Cl)c([N+](=O)[O-])c1Nc1ncc(C(F)(F)F)cc1Cl"
A) active

Q) Test call, this compound: "CN1COCN(Cc2cnc(Cl)s2)C1=N[N+](=O)[O-]"
A) inactive
